Consider the following molecules and their measured composite z-score readings.
- Test system: XIP peptide (Xip251-270)
- protocol-description: small-molecule binders of XIP peptide, primary screen, biochemical, small-molecule microarray, fluorescence 635/667 nm, 0.5 µg/mL protein (AID 1183)
- assay-setup: small-molecule microarray binding, fluorescence 635 nm; higher = more signal
readout-type: composite z-score

molecule | measured-result
C=CCN1C(=O)[C@@]2(O[C@@H](CCn3cc(CCO)nn3)[C@H]([Si](C)(C)c3ccc(OC)cc3)[C@H]2C)c2cc(NC(=O)c3ccc(OC)cc3)ccc21 | 0.442
[N-]=[N+]=NCc1ccccc1C[C@@]1(C(=O)O)N=C(c2ccc(OCCCO)cc2)O[C@@H]1c1ccccc1 | 0.687
C[N+](C)(C)CCCC[C@@H]1NC(=O)[C@@H]2C[C@H](C(=O)NCCCCCNC(=O)CS)[C@H](c3ccc(O)cc3)N2C1=O | 0.184
COC(=O)C(CC#Cc1ccc2c(c1)[C@]1(C(=O)N2)[C@H](C(N)=O)[C@H]2C(=O)O[C@H](c3ccccc3)[C@H](c3ccccc3)N2[C@@H]1c1ccc(O)cc1)C(=O)OC | -1.13
COC(=O)c1c2oc(c1C(=O)OC)C(=O)N[C@@H](C(C)C)Cn1nncc1C1(CCCCC1)NC(=O)N[C@H](CO)CC2 | -0.985
CC(C)C[C@@H]1NC(=O)[C@@]23C(=O)N[C@@H](Cc4ccccc4)C2[C@H](C)[C@@]2(C)O[C@H]2C3/C=C/CC/C=C/CNC(=O)[C@@H](C)NC1=O (stereo partly drawn) | -0.0387
CC(C)C(=C=CC[C@@H](O)c1ccc(CO)o1)CCO | -0.514
CC(C)C[C@@H]1NC(=O)[C@@H]2C[C@H](C(=O)NCCCCCNC(=O)CS)[C@H](c3cccc(OCCO)c3)N2C1=O | 0.785
O=C1c2ccccc2C(=O)c2cc([C@H]3Oc4ccccc4S(=O)(=O)N4CCC[C@@H]34)ccc21 | -1.82
CCCCCN1CC=CC23O[C@@H]4/C=C\CCC(C)OC(=O)C4[C@H]2C(=O)N(CCCO)[C@@H]3C1=O (stereo partly drawn) | -0.827
CCOC(=O)C[C@H]1[C@H](OC(=O)c2ccc(-c3ccccc3)cc2)[C@@H](NC(=O)C2CCCCC2)c2cc(OCCCO)ccc2N1C(=O)c1ccc2ccccc2n1 | 0.0417
C=CCC(OC(C)=O)[C@@H]1[C@@H](N(Cc2cccc3ccccc23)C(=O)c2cccc3ccccc23)c2cc(OCCCO)ccc2N1C(=O)Cc1ccc(OC)cc1 (stereo partly drawn) | -0.314
C=CCNC(=O)[C@@H]1[C@H]2C(=O)O[C@H](c3ccccc3)[C@H](c3ccccc3)N2[C@H](c2ccc(O)cc2)[C@@]12C(=O)Nc1ccc(C#Cc3ccc(OC)cc3)cc12 | 0.543

* * *

- protocol-description: S. cerevisiae growth modulation with rapamycin, primary screen, strain BY4716, OD600, 96 h (AID 1091)
- assay-setup: higher = more signal, called active from +8 up or from −8 down
Recorded z-score values for a group of molecules are listed next.

molecule | z-score
C=C1C=C(Br)C2(OCCCO2)[C@H]2OC12 (some centres not stated) | 0.405
Cc1ccc(N2C(=O)c3ccccc3[C@](C)(C(=O)NC3CC3)[C@@H]2c2ccc(CO)cc2)nc1 | -0.69
C=C(C(=O)CC[C@@H](OC(C)=O)c1ccccc1OCCO)C(C)C | -2.44
CC(C)C[C@@H]1NC(=O)[C@@]23C(=O)N[C@@H](Cc4ccccc4)C2[C@H](C)[C@@]2(C)O[C@H]2C3/C=C/CC/C=C/CNC(=O)[C@@H](C)NC1=O (some centres not stated) | -0.697
CCN(CC)c1ccc(N2CC=CC34O[C@@H]5C=CCOC(=O)[C@@H]5[C@H]3C(=O)N(C(CO)C(C)C)[C@@H]4C2=O)cc1 (some centres not stated) | 1.07
CC(C)[C@@H](C(=O)O)n1cc(-c2ccccn2)nn1 | -0.353
NCCCCCCNC(=O)[C@@H]1C[C@@H]2C(=O)N[C@@H](Cc3ccccc3)C(=O)N2[C@@H]1c1ccc(O)cc1 | -0.373
CC(C)[Si](C#C[Si](C(C)C)(C(C)C)C(C)C)(O[C@H](C)c1cn([C@H](C)c2ccccc2)nn1)C(C)C | -1.4
C=CCOC(=O)[C@H]1[C@@H]2C(=O)O[C@@H](c3ccccc3)[C@@H](c3ccccc3)N2[C@@H](c2ccc(OCCOC(=O)[C@H]3C[C@H]4C(=O)N5CCC[C@H]5C(=O)N4[C@H]3c3cccc(OCCO)c3)cc2)[C@]12C(=O)Nc1ccccc12 | 2.43
C=CCNC(=O)[C@@H]1[C@H]2C(=O)O[C@H](c3ccccc3)[C@H](c3ccccc3)N2[C@H](c2ccc(O)cc2)[C@@]12C(=O)N(C(=O)OCCOC)c1ccc(C#Cc3ccc(OC)cc3)cc12 | 2.6
CCCCC(=C=CC[C@@H](O)c1ccc(OCCO)cc1)C[C@@H](O)c1cc(Cl)cc(Cl)c1O | -1.39
CC(C)(C)OC(=O)CC[C@@]12N=C(c3ccc(OCCCO)cc3)O[C@@H]1c1ccccc1CN(Cc1ccccc1)C2=O | 6.17
C=C(C1=CCN(S(=O)(=O)c2ccc(C)cc2)C1)[C@@H](OC(C)=O)[C@@H]1CCCN1S(=O)(=O)c1ccccc1[N+](=O)[O-] | 1.82
COC(=O)C1=CC(c2ccc(CO)cc2)=CC(C2CC2)N(C)C=C1C(=O)OC (configuration not stated) | -2.41
CC(C)C[C@@H]1NC(=O)[C@@H]2C[C@H](C(=O)NCCCCCNC(=O)CS)[C@H](c3cccc(OCCO)c3)N2C1=O | -0.565
C[N+](C)(C)CCCCNC(=O)[C@@H]1C[C@@H]2C(=O)NCC(=O)N2[C@@H]1c1cccc(OCCO)c1 | -1.89
CCCNC(=O)[C@@H]1c2ccccc2C(=O)N(Cc2cc(C(F)(F)F)cc(C(F)(F)F)c2)[C@H]1c1ccc(CO)cc1 | -0.262
CO[C@H]1O[C@H](CO)[C@@H](OC(=O)Nc2ccccc2)[C@H](OC(=O)Nc2ccccc2-c2ccccc2)[C@H]1OC(=O)Nc1ccccc1-c1ccccc1 | 1.22
CCOC(=O)C[C@H]1[C@H](OC(=O)c2cc3ccccc3oc2=O)[C@@H](NC(=O)c2ccccc2)c2cc(OCCCO)ccc2N1C(=O)Cc1ccc(OC)cc1 | -0.846
COCCOC(=O)N1C(=O)[C@@]2(c3cc(C#CCNC(N)=O)ccc31)[C@H](c1ccccc1OCCO)N1[C@H](c3ccccc3)[C@H](c3ccccc3)OC(=O)[C@H]1[C@@H]2C(=O)Nc1nc2ccccc2s1 | 1.99
O=C1c2ccccc2[C@](Cc2ccccc2I)(C(=O)O)[C@H](c2ccc(CO)cc2)N1Cc1ccccc1Cl | -1.19
CN1C=C(C(=O)OCCS(C)(=O)=O)C(C(=O)OCCS(C)(=O)=O)=CC(CCCO)=CC1c1cccs1 (configuration not stated) | -2.42
COC(=O)c1c2oc(c1C(=O)OC)C(=O)N[C@@H](C(C)C)Cn1nncc1C1(CCCCC1)NC(=O)N[C@H](CO)CC2 | -0.787
CCOC(=O)C[C@H]1[C@H](OC(=O)c2ccc(C(=O)c3ccccc3)cc2)[C@@H](NC(=O)Cc2ccc(OC)cc2)c2cc(OCCCO)ccc2N1C(=O)Cc1ccc(OC)cc1 | -0.914
CO[C@H]1O[C@H](CO)[C@@H](OC(=O)CCc2ccccc2)[C@@H]2OC(=O)[C@H](Cc3ccccc3)C/C=C/C[C@@H](Cc3ccccc3)C(=O)O[C@@H]12 | 11.3
CC(C)C[C@@H]1NC(=O)[C@@]23C(=O)N[C@@H](Cc4ccccc4)C2[C@H](C)[C@@]2(C)O[C@H]2C3/C=C/C/C=C\CNC(=O)[C@H](Cc2ccccc2)NC1=O (some centres not stated) | -0.602
COCCOC(=O)N1C(=O)[C@@]2(c3cc(C#CCCO)ccc31)[C@H](c1ccccc1OCCO)N1[C@H](c3ccccc3)[C@H](c3ccccc3)OC(=O)[C@H]1[C@@H]2C(=O)NC[C@H](O)c1ccccc1 | 2.23
